- Measurement Protocol: Tissue distribution of RPM constituents after oral RPM extract
- Condition Details: both, Sprague-Dawley, rat, lung, po, 18 g/kg, AUC0-t in lung, rat tissue: lung; 18 g/kg RPM extract p.o.; tissues collected at 5, 15, 60 min
Measure Name: AUC(0-t) (µM·h)

INSERT INTO assay_data (compound, result_unit, value_measured) VALUES
  ('Cc1cc(O)c2c(c1)C(=O)c1cccc(O)c1C2=O [Chrysophanol]', 'µM·h', 0.0476),
  ('OC[C@H]1O[C@@H](Oc2c(O)cc(O)cc2/C=C/c2ccc(O)cc2)[C@H](O)[C@@H](O)[C@@H]1O [TSG]', 'µM·h', 35.1),
  ('COc1cc(O)cc2c1C(=O)c1c(O)cc(CO)cc1C2=O [Questinol, questinol]', 'µM·h', 0.0251),
  ('COc1cc(O[C@@H]2O[C@H](CO)[C@@H](O)[C@H](O)[C@H]2O)c2c(c1)C(=O)c1cc(C)cc(O)c1C2=O [PG, physcion-8-O-β-D-glucoside]', 'µM·h', 0.842),
  ('COc1cc(O[C@@H]2O[C@H](CO)[C@@H](O)[C@H](O)[C@H]2O)c2c(O)c(C(C)=O)c(C)cc2c1 [TG, torachrysone-8-O-glucoside]', 'µM·h', 0.438);

Reference for the values: paper PMC8899820
